Target system: IKBKE (human) (UniProt Q14164)
Sequence (Q14164 whole entry, looked up): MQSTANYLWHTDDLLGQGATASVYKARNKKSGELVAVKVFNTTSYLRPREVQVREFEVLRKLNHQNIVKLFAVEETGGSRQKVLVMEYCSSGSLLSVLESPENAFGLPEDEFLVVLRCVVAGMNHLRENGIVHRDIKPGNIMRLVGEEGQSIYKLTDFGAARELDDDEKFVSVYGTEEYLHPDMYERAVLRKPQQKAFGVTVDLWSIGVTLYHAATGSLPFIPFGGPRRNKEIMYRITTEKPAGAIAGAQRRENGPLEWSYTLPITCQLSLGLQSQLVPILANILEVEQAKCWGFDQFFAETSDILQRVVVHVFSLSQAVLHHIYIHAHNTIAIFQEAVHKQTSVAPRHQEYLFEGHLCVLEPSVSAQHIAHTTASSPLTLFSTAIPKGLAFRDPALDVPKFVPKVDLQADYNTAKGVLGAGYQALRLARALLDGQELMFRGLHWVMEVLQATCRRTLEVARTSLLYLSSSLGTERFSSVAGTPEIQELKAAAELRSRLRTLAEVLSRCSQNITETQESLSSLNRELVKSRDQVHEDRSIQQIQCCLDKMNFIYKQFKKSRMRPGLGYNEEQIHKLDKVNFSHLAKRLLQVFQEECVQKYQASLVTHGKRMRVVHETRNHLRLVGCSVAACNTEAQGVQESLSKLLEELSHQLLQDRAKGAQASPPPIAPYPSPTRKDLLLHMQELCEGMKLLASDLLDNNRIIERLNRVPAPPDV
Method description: KINOMEscan competition binding
Run parameters: compound 10.0 µM
Attribute measured: kinase still bound, per cent of control (%)
State the answer as a number, implicitly in %.

// known answers, use as guide
>>> df
                           smiles_structure  reported_measurement
0  CN1C(=O)c2ccccc2N(C)c2nc(Nc3ccc(N4CCC(O)CC4)cc3)ncc21                    87
1  Nc1cccc(-c2cc(/C=C3\SC(=O)NC3=O)c[nH]c2=O)c1                    29
2  O=C1NC(=O)/C(=C/c2c[nH]c(=O)c(-c3ccc(N4CCNCC4)nc3)c2)S1                    62
3  COc1cc(N2CCN(C)CC2)ccc1Nc1ncc2c(n1)N(C)c1sccc1C(=O)N2C                   100
4  COc1cc(N2CCC(O)CC2)ccc1Nc1ncc2c(n1)N1CCc3cccc(c31)C(=O)N2C                    92

Exam item: kinase still bound, per cent of control lookup needed for "COc1cc(N2CCN(C)CC2)ccc1Nc1ncc2c(n1)Nc1ccccc1NC2=O" , thanks.
Marked response: 97

Exam item: kinase still bound, per cent of control lookup needed for "CN1C(=O)c2ccccc2N(C)c2nc(NS(=O)(=O)c3ccc(N)cc3)ncc21" , thanks.
Marked response: 100

Exam item: kinase still bound, per cent of control lookup needed for "COc1cc(N2CCN(C)CC2)ccc1Nc1ncc2c(n1)N(C)c1ccccc1N(C)C2=O" , thanks.
Marked response: 100

Exam item: kinase still bound, per cent of control lookup needed for "CN1CCN(c2ccc(C(=O)Nc3ncc4c(n3)N(C)c3ccccc3C(=O)N4C)cc2)CC1" , thanks.
Marked response: 100

* * *

Target system: PHKG2 (human) (UniProt P15735)
Sequence (P15735 whole entry, looked up): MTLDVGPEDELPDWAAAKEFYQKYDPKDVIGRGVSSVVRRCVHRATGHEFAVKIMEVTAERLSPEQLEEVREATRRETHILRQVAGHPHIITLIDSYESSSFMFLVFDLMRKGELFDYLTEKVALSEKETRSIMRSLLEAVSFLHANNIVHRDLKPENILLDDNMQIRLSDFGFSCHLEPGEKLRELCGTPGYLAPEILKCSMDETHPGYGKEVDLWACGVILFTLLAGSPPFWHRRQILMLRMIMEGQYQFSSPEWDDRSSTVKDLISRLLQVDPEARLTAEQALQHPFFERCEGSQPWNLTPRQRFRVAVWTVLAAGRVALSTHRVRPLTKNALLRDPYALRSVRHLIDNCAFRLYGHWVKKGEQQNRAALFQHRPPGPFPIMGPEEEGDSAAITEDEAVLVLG
Method description: KINOMEscan competition binding
Run parameters: compound 10.0 µM
Attribute measured: kinase still bound, per cent of control (%)
State the answer as a number, implicitly in %.

// known answers, use as guide
                           smiles_structure  reported_measurement
0  O=C1NC(=O)/C(=C/c2c[nH]c(=O)c(-c3ccc(N4CCNCC4)nc3)c2)S1                   6.6
1  COc1cc(N2CCN(C)CC2)ccc1Nc1ncc2c(n1)N(C)c1ccccc1N(C)C2=O                    15
2  CN1CCN(c2ccc(C(=O)Nc3ncc4c(n3)N(C)c3ccccc3C(=O)N4C)cc2)CC1                    90
3  COc1cc(N2CCN(C)CC2)ccc1Nc1ncc2c(n1)Nc1ccccc1NC2=O                   6.8

Now turn to the next compound.
Exam item: kinase still bound, per cent of control lookup needed for "N=C1NC(=O)/C(=C/c2ccc(-c3cncc4ccccc34)o2)S1" , thanks.
Marked response: 10

* * *

Below, each of the compounds is paired with its reported kinase still bound, per cent of control value.
Target system: STK33 (human)
Method description: KINOMEscan competition binding
Run parameters: compound 10.0 µM
State the answer as a number, implicitly in %.

// known answers, use as guide
>>> print(df.to_string())
                                   compound                       attribute_measured  display_unit  reported_measurement
0  COc1cc(N2CCC(C)(O)CC2)ccc1Nc1ncc2c(n1)N(C1CCCC1)CCC(=O)N2C  kinase still bound, per cent of control             %                    12
1  COc1cc(C(=O)NC2CCN(C)CC2)ccc1Nc1ncc2c(n1)N(CCc1ccccc1)CCC(=O)N2C  kinase still bound, per cent of control             %                    13
2  COc1cc(N2CCN(C)CC2)ccc1Nc1ncc2c(n1)Nc1ccccc1NC2=O  kinase still bound, per cent of control             %                    51

Exam item: kinase still bound, per cent of control lookup needed for "N=C1NC(=O)/C(=C/c2c[nH]c(=O)c(-c3ccc(N4CCNCC4)nc3)c2)S1" , thanks.
Marked response: 7.2

Exam item: kinase still bound, per cent of control lookup needed for COc1cc(N2CCN(C)CC2)ccc1Nc1ncc2c(n1)N(C1CCCC1)C(C)CC(=O)N2 (stereo not given) , thanks.
Marked response: 18

Each recorded value in this set is attributed to the kinase profiling compilation of Christmann-Franck et al. (2016).
